- Tested on: SR
- experiment_summary: NCI tumour cell line growth inhibition, 48 h
Activity calls are given as the source filed them. Rule as the data show it: active = GI50 up to about 1.1 µM and inactive = higher.
Quick reference: GI50 of the listed items.

>>> measured("C[Si](C)(C)C#Cc1cc(-c2nc3ccccc3s2)ccc1N")
"26.4 µM (inactive)"
>>> measured("COc1ccc(N2C(=O)CC(C3CC(C(C)(C)C)CCC3=O)C2=O)cc1 (configuration not stated)")
"> 100 µM (inactive)"
>>> measured("Cc1ccc(/C=C2\\CCS(=O)(=O)c3ccccc3C2=O)cc1")
"10.6 µM (inactive)"

Incoming: Query the reported GI50 for SR; item: COc1cc(C=O)cc(/C=N/c2ccccn2)c1O
Outgoing: 2.18 µM (inactive)

Incoming: Subsequent entry: O=NN1CCN=C1c1ccc([N+](=O)[O-])cc1
Outgoing: > 100 µM (inactive)

Incoming: Check O=c1nc(NC(c2ccccc2)(c2ccccc2)c2ccccc2)ccn1CCO too.
Outgoing: 36.3 µM (inactive)

Incoming: Would you mind doing NC1(c2cc3ccccc3s2)CCCCCC1 as well?
Outgoing: 16.2 µM (inactive)
